target: human PAH with the R408W mutation (Homo sapiens, UniProt P00439, R408W); construct: expressed in transfected cells; assay: Cell Based Phenylalanine Flux Assay; settings: A375 cells expressing human R408W PAH; 24 hrs with compound; 13C-Tyrosine by LC-MS; average where tested multiple times; read-out: AC50
Sequence (P00439 whole entry R408W): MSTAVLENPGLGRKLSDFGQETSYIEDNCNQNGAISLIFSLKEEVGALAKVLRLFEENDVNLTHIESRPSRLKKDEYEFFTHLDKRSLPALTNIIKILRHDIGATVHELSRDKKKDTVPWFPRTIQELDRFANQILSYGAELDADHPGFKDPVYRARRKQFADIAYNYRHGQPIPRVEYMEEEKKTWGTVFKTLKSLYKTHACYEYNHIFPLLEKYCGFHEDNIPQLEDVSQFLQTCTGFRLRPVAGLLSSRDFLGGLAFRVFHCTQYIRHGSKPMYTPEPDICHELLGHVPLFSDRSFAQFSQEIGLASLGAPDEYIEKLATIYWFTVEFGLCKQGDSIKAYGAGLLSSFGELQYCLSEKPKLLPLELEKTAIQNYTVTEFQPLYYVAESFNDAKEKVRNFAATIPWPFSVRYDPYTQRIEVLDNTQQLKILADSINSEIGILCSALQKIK
AC50 values, listed per item

INSERT INTO measurements (compound, measurement_target, measured_result) VALUES
  ('O=C(c1cnn2cc(Cl)ccc12)N1CCc2[nH]cnc2[C@H]1c1nc2ccc(Br)cc2[nH]1 (single isomer, unassigned)', 'human PAH with the R408W mutation (Homo sapiens, UniProt P00439, R408W)', '1 to 5 µM'),
  ('N#Cc1nc(NCC(F)(F)F)oc1C(=O)N1CCc2[nH]cnc2C1c1nc2ccccc2s1 (stereo not shown)', 'human PAH with the R408W mutation (Homo sapiens, UniProt P00439, R408W)', '1 to 5 µM'),
  ('Cc1nc(C(=O)N2CCc3[nH]cnc3C2c2nc3c(F)cccc3s2)n(C)n1 (stereo not shown)', 'human PAH with the R408W mutation (Homo sapiens, UniProt P00439, R408W)', '> 5 µM'),
  ('COCc1cc(C(=O)N2CCc3[nH]cnc3C2c2nc3c(F)cccc3s2)n(C)n1 (stereo not shown)', 'human PAH with the R408W mutation (Homo sapiens, UniProt P00439, R408W)', '> 5 µM');

Annotate the compound O=C(c1cncs1)N1CCc2[nH]cnc2C1c1nc2ccc(F)cc2s1 (stereo not shown) with its measured AC50.
> 5 µM

Annotate the compound O=C(c1cnn2cc(Br)ccc12)N1CCc2[nH]cnc2C1c1nc2ccc(Br)cc2[nH]1 (stereo not shown) with its measured AC50.
1 to 5 µM

Annotate the compound Cc1cccc2sc(C3c4nc[nH]c4CCN3C(=O)c3cnn(C)c3Cl)nc12 (stereo not shown) with its measured AC50.
1 to 5 µM

Annotate the compound O=C(c1ncc(Cl)s1)N1CCc2[nH]cnc2C1c1nc2ccc(F)cc2s1 (stereo not shown) with its measured AC50.
> 5 µM

Annotate the compound Cn1nc(CO)cc1C(=O)N1CCc2[nH]cnc2[C@@H]1c1nc2c(F)cccc2s1 (single isomer, unassigned) with its measured AC50.
> 5 µM

Annotate the compound Cc1nc(N2CCN(C)CC2)oc1C(=O)N1CCc2[nH]cnc2C1c1nc2c(F)cccc2s1 (stereo not shown) with its measured AC50.
1 to 5 µM

Data origin, for the record: patent US20250171438A1
